- METHOD_NOTES: Quantitative highthroughput screen to assess conditional lethalithy of NOMO1 cells grown in RPMI1640 with dialyzed fetal bovine serum (RPMI+ds) (AID 1963877); further: nearly all actives have a fitted effect of over 30% in size;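 on viability: 100% = DMSO control wells and 0% = empty wells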
- EXPERIMENTAL_CONDITIONS: NOMO1 in RPMI+dialyzed FBS viability, ATP luminescence, 48 h; series mostly up to 45.8 µM
Records with an inconclusive call do not appear. Activity calls are given as the source filed them. The call rests on the fitted dose curve; in most records, active means well fitted cell-killing curve with a large enough effect; inconclusive means small, poorly fitted or top-dose-only effect; inactive means flat fitted curve, though single readings scatter.
Classes to choose from: t (active), f (inactive)

Use the examples below as a reference point.
COMPOUND: NS(=O)(=O)NCCNc1nonc1C(=Nc1ccc(F)c(Br)c1)NO
CAT: t
//
COMPOUND: O=C(C=Cc1cccnc1)NCCCCC1CCN(C(=O)c2ccccc2)CC1
CAT: t
//
COMPOUND: N[C@@H](C(=O)N[C@@H]1C(=O)N2C(C(=O)O)=C(Cl)CS[C@H]12)c1ccccc1
CAT: f
//
COMPOUND: CC(C)(C)[N+]([O-])=Cc1ccc(S(=O)(=O)O)cc1S(=O)(=O)O
CAT: f
//
COMPOUND: Cc1ccccc1C(C(=O)NC1CCCCC1)N(C(=O)CNc1ccc(C#N)cc1)c1cccc(F)c1 (centres undefined)
CAT: f

State the result this test recorded for CC(C)(O)[C@H]1CC[C@@](C)([C@H]2[C@@H](O)C[C@@]3(C)[C@@H]4C[C@H](O[C@@H]5O[C@H](CO)[C@@H](O)[C@H](O)[C@@H]5O)[C@H]5C(C)(C)[C@@H](O[C@@H]6OC[C@@H](O)[C@H](O)[C@@H]6O)CC[C@@]56C[C@@]46CC[C@]23C)O1 . f

State the result this test recorded for COc1nc(C)nc(Cl)c1NC1=NCCN1 . f

###

- METHOD_NOTES: Quantitative highthroughput screen to assess conditional lethalithy of NOMO1 cells grown in RPMI1640 with dialyzed fetal bovine serum (RPMI+ds) (AID 1963877); further: nearly all actives have a fitted effect of over 30% in size;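 on viability: 100% = DMSO control wells and 0% = empty wells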
- EXPERIMENTAL_CONDITIONS: NOMO1 in RPMI+dialyzed FBS viability, ATP luminescence, 48 h; series mostly up to 45.8 µM
Results filed as inconclusive are left out. Activity calls are given as the source filed them. Calls follow the shape of the dose curve; as a rule, active = well fitted cell-killing curve with a large enough effect; inconclusive = small, poorly fitted or top-dose-only effect; inactive = flat fitted curve, though single readings scatter.
Classes to choose from: TRUE (active), FALSE (inactive)

MOLECULE: CC(C)Nc1cc(C(F)(F)F)cc2nc(NC(=O)c3cccnc3)nn12
CAT: TRUE
--
MOLECULE: CC(C)(C)COc1ccc(-n2cc(C(=O)O)cn2)cc1C#N
CAT: FALSE
--
MOLECULE: CC(=O)O[C@@]12CO[C@H]1C[C@H](O)[C@@]1(C)C(=O)[C@H](O)C3=C(C)[C@@H](OC(=O)C(O)[C@@H](NC(=O)OC(C)(C)C)c4ccccc4)C[C@@](O)([C@@H](OC(=O)c4ccccc4)[C@@H]21)C3(C)C (stereo not given in full)
CAT: FALSE
--
MOLECULE: Clc1ccc(CCC(Cn2ccnc2)Sc2c(Cl)cccc2Cl)cc1 (stereo not given)
CAT: FALSE

Continue with the next molecule.
State the result this test recorded for O=C(O)CCCCCC(=O)NN=C1CCCC1 . FALSE

###

- METHOD_NOTES: Quantitative highthroughput screen to assess conditional lethalithy of SEM cells grown in RPMI1640 with unreated serum (RPMI+s) (AID 1963883); further: nearly all actives have a fitted effect of over 35% in size;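 on viability: 100% = DMSO wells and 0% = empty wells without cells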
- EXPERIMENTAL_CONDITIONS: SEM B-ALL cells, CellTiter-Glo viability, 48 h; series mostly up to 45.8 µM
Results filed as inconclusive are left out. The source made the active and inactive calls. The call rests on the fitted dose curve; in most records, active means well fitted cell-killing curve with a large enough effect; inconclusive means small, poorly fitted or top-dose-only effect, or effect the other way; inactive means no such curve, though single readings can be large or run the other way.
Classes to choose from: 1 (yes) (active), 0 (no) (inactive)

Use the examples below as a reference point.
MOLECULE: Cc1cc2nc3c(=O)[nH]c(=O)nc-3n(CC(O)C(O)C(O)CO)c2cc1C (configuration not stated)
CAT: 0 (no)
--
MOLECULE: CCCC1OC2C[C@@H]3[C@H]4CCC5=CC(=O)C=C[C@]5(C)[C@H]4C(O)C[C@]3(C)[C@]2(C(=O)CO)O1 (some centres not stated)
CAT: 1 (yes)
--
MOLECULE: COc1ccc2cc(-c3nc(-c4ccc(S(C)=O)cc4)[nH]c3-c3ccncc3)ccc2c1 (configuration not stated)
CAT: 0 (no)
--
MOLECULE: Fc1ccc(C(c2ccc(F)cc2)N2CCN(CC=Cc3ccccc3)CC2)cc1
CAT: 0 (no)

Continue with the next molecule.
State the result this test recorded for CC(=O)c1c(C)c2cnc(Nc3ccc(N4CCNCC4)cn3)nc2n(C2CCCC2)c1=O . 1 (yes)

###

- METHOD_NOTES: Cellular viability qHTS for adrenocortical cancer (ACC) cell line NCI-H295R (AID 1963990); further: nearly all actives have a fitted effect of over 60% in size
- EXPERIMENTAL_CONDITIONS: CellTiter-Glo ATP luminescence, 48 h; series mostly up to 46.1 µM
Results filed as inconclusive are left out. Activity calls are given as the source filed them. Calls come from the whole dose curve; as a rule, active = well fitted cell-killing curve with a large enough effect; inconclusive = small, poorly fitted or top-dose-only effect; inactive = flat fitted curve, though single readings scatter.
Classes to choose from: active, inactive

COMPOUND: CC1(C)CC(=O)c2c(C(F)(F)F)nn(-c3ccc(C(N)=O)c(NC4CCC(O)CC4)c3)c2C1 (stereo not given)
CAT: active
//
COMPOUND: Cc1cccc(C)c1OCC(C)N (stereo not given)
CAT: inactive
//
COMPOUND: Cc1cc2cc(Oc3ccnc(Nc4cccc(CS(=O)(=O)NCCN(C)C)c4)n3)ccc2[nH]1
CAT: active
//
COMPOUND: C[N+](C)(C)CC[N+]1(C)Cc2c(Cl)c(Cl)c(Cl)c(Cl)c2C1
CAT: inactive

Continue with the next compound.
State the result this test recorded for COCC(=O)O[C@]1(CCN(C)CCCc2nc3ccccc3[nH]2)CCc2cc(F)ccc2[C@@H]1C(C)C . active

###

- METHOD_NOTES: Quantitative highthroughput screen to assess conditional lethalithy of SEM cells grown in Human Plasma-Like Medium with dialyzed fetal bovine serum (HPLM+ds) (AID 1963882); further: nearly all actives have a fitted effect of over 35% in size; further: potency means the concentration at half of the fitted maximal effect
- EXPERIMENTAL_CONDITIONS: SEM B-ALL cells in HPLM+ds, CellTiter-Glo viability, 48 h; series mostly up to 45.8 µM
Inconclusive results are not listed. The source made the active and inactive calls. Calls follow the shape of the dose curve; as a rule, active = well fitted cell-killing curve with a large enough effect; inconclusive = small, poorly fitted or top-dose-only effect, or effect the other way; inactive = no such curve, though single readings can be large or run the other way.
PROPERTY_MEASURED: Potency

COMPOUND: COc1ccccc1OCC(O)COC(N)=O (stereo unspecified)
MEASURED: inactive

COMPOUND: COC(=O)N1CCN(Cc2cccc(NC(=O)Nc3ccc(C)nc3)c2F)CC1
MEASURED: inactive

COMPOUND: Nc1[nH]nc2nnc(-c3c(-c4ccccc4)nn4ccccc34)cc12
MEASURED: 23.5 µM (active)

COMPOUND: Cc1cc(Nc2ncc3c(n2)N(C)C(=O)N(c2cc(NC(=O)c4cccc(C(F)(F)F)c4)ccc2C)C3)n(C)n1
MEASURED: 0.469 µM (active)

COMPOUND: CC[C@H](CO)Nc1nc(NCc2ccccc2)c2ncn(C(C)C)c2n1
MEASURED: inactive

COMPOUND: CCOC(=O)N1CCC(=C2c3ccc(Cl)cc3CCc3cccnc32)CC1
MEASURED: inactive

COMPOUND: CC(C)C(=O)Nc1ccc([N+](=O)[O-])c(C(F)(F)F)c1
MEASURED: inactive

COMPOUND: CC(C)=CCCC(C)=CCCC(C)=CCCC(C)=CCCC(C)=CCCC(C)=CCCC(C)=CCCC(C)=CCCC(C)=CCO
MEASURED: inactive

COMPOUND: Cc1nc2c([nH]1)CCN(C(=O)c1ccc(NC(=O)c3ccccc3-c3ccccc3)cc1)c1ccccc1-2
MEASURED: inactive

COMPOUND: CC(C)c1noc(N2CCC(COc3ccc(-c4ccc(S(C)(=O)=O)cc4)nc3)CC2)n1
MEASURED: inactive

Check the records and state Potency for CC(C)c1nn(-c2c(Cl)cccc2Cl)c2nc(Cc3ccc(OCCO)cc3)[nH]c(=O)c12 0.105 µM (active)

Check the records and state Potency for Cc1nc(-c2ccc(OCC(C)C)c(C#N)c2)sc1C(=O)O inactive

Check the records and state Potency for Cc1ccc2nc(NCCN)c3ncc(C)n3c2c1 11.8 µM (active)

###

- METHOD_NOTES: Viability qHTS for spleen associated tyrosine kinase inhibitor (SYKi) drug resistant MV4-11 cells (AID 1963824); further: nearly all actives have a fitted effect of over 35% in size
- EXPERIMENTAL_CONDITIONS: SYKi-resistant MV4-11 viability, CellTiter-Glo, 72 h; series mostly up to 45 µM
Records with an inconclusive call do not appear. Active and inactive are the calls of the source. Calls come from the whole dose curve; as a rule, active = well fitted cell-killing curve with a large enough effect; inconclusive = small, poorly fitted or top-dose-only effect, or effect the other way; inactive = no such curve, though single readings can be large or run the other way.
Classes to choose from: active, inactive

MOLECULE: NC1CCN(c2cccc(Cl)n2)CC1
CAT: inactive

MOLECULE: Cc1c(F)c(N2CCNC(C)C2)cc2c1c(=O)c(C(=O)O)cn2C1CC1 (centres undefined)
CAT: inactive

MOLECULE: CC1(C)S[C@H]2[C@H](NC(=O)[C@@H](N)c3ccc(O)cc3)C(=O)N2[C@H]1C(=O)O
CAT: inactive

MOLECULE: CC1(C)CCCC2(C)c3c4c(c(=O)oc(=O)c3=CCC12)=CCC1C(C)(C)CCCC41C (centres undefined)
CAT: inactive

MOLECULE: COc1ccc(-c2nc(N3CCOCC3)c3sc(CN(C)c4ncc(C(=O)NO)cn4)cc3n2)cn1
CAT: active

MOLECULE: C=C(CO[C@@H]1O[C@H](CO[C@@H]2OC[C@](O)(CO)[C@H]2O)[C@@H](O)[C@H](O)[C@H]1O)C1Cc2cc(C(C)=O)ccc2O1 (some centres undefined)
CAT: inactive

MOLECULE: COc1cc2c(cc1OC)N1C(=O)C[C@]34C=CCN5CC[C@@H]2[C@@H](CC3)[C@]514
CAT: active

MOLECULE: COc1c2ccoc2nc2c(OC)c(O[C@@H]3O[C@@H](C)[C@H](O)[C@@H](O[C@@H]4O[C@H](CO)[C@@H](O)[C@H](O)[C@H]4O)[C@H]3OC(C)=O)ccc12
CAT: inactive

Continue with the next molecule.
State the result this test recorded for CN(C)c1nc(N(C)C)nc(N(C)C)n1 . inactive

Data provenance: PubChem BioAssay (NCATS)
